Taken from PubChem BioAssay (Tox21).

- assay-comment: qHTS assay to identify small molecule antagonists of the thyroid receptor (TR) signaling pathway - cell viability counter screen (AID 743064); further: nearly all actives have a fitted effect of over 50% in size; further: potency means the concentration at half of the fitted maximal effect
- recorded-conditions: GH3.TRE-Luc viability, CellTiter-Fluor, 24 h; series mostly up to 70.3 µM
Results filed as inconclusive are left out. The source made the active and inactive calls. The call rests on the fitted dose curve; in most records, active means well fitted cell-killing curve with a large enough effect in the repeat runs; inconclusive means weak or mixed curves, or effect the other way; inactive means no such curve, though single readings can be large or run the other way.
quantity: Potency

CCC(=O)OCC(=O)[C@@]1(OC(=O)CC)[C@H](C)C[C@H]2[C@@H]3CCC4=CC(=O)C=C[C@]4(C)[C@@]3(F)[C@@H](O)C[C@@]21C; inactive
CNCC(O)c1ccc(OC(=O)C(C)(C)C)c(OC(=O)C(C)(C)C)c1 (centres undefined); 12.7 µM (active)
O=C(NCCNCC(O)COc1ccc(O)cc1)N1CCOCC1 (centres undefined); inactive
O=C[C@H](O)[C@@H](O)[C@H](O[C@H]1O[C@H](CO)[C@@H](O[C@H]2O[C@H](CO)[C@@H](O)[C@H](O)[C@H]2O)[C@H](O)[C@H]1O)[C@H](O)CO; inactive

Q: Sample S=C1SCN(Cc2ccccc2)CN1Cc1ccccc1 — what was its Potency?
A: 18.8 µM (active)

Q: Sample O=C(Nc1ccc(O)cc1)c1ccccc1O — what was its Potency?
A: inactive

Q: Sample O=S(=O)(O)Oc1ccc(C(c2ccc(OS(=O)(=O)O)cc2)c2ccccn2)cc1 — what was its Potency?
A: inactive

Q: Sample CN(CCO)CC(O)Cn1cnc2c1c(=O)n(C)c(=O)n2C (centres undefined) (tested in a mixture with another compound) — what was its Potency?
A: inactive

Q: Sample O=C1N=C2SCCN2C(=O)C1Cc1ccc(Cl)cc1 (centres undefined) — what was its Potency?
A: inactive

====

- assay-comment: qHTS assay to identify small molecule antagonists of the thyroid receptor (TR) signaling pathway (AID 743065); further: nearly all actives have a fitted effect of over 55% in size; further: potency means the concentration at half of the fitted maximal effect
- recorded-conditions: GH3.TRE-Luc, T3-stimulated luciferase inhibition, 23.5 h; series mostly up to 70.3 µM
Records with an inconclusive call do not appear. Active and inactive are the calls of the source. The call rests on the fitted dose curve; in most records, active means well fitted inhibition curve with a large enough effect in the repeat runs; inconclusive means weak or mixed curves; inactive means no such curve, though single readings can be large or run the other way.
quantity: Potency

O=C(O)[C@@H](O)[C@H](O)[C@H](O)[C@@H](O)C(=O)O (tested in a mixture with another compound); inactive
O=C1NC(=O)[C@H]2[C@@H]1[C@@H]1C=C[C@H]2C1; inactive
CC(=O)Oc1c(C)cc(OCC(O)CNC(C)C)c(C)c1C (configuration not stated); inactive
COc1ccc(/C=C/C(=O)OCCC(C)C)cc1; inactive
Cc1onc(-c2ccccc2)c1C(=O)N[C@@H]1C(=O)N2[C@@H]1SC(C)(C)[C@@H]2C(=O)O; inactive
O=P(O)(O)C(Sc1ccc(Cl)cc1)P(=O)(O)O; inactive

Q: Sample CC(CCc1ccc(O)cc1)NCC(O)c1ccc(O)cc1 (configuration not stated) — what was its Potency?
A: inactive

Q: Sample O=C(Nc1ccc(O)cc1)c1ccccc1O — what was its Potency?
A: inactive

Q: Sample CC(C)Cc1ccc([C@@H](C)C(=O)NS(C)(=O)=O)cc1 — what was its Potency?
A: inactive

Q: Sample CC(C(=O)O)c1ccc(N2Cc3ccccc3C2=O)cc1 (configuration not stated) — what was its Potency?
A: 7.5 µM (active)

Q: Sample C=C1c2c(Cl)ccc(O)c2C(O)=C2C(=O)[C@]3(O)C(O)=C(C(N)=O)C(=O)[C@@H](N(C)C)[C@@H]3[C@@H](O)[C@H]12 — what was its Potency?
A: inactive

Q: Sample O=C(O)c1ccc(OCCn2ccnc2)cc1 — what was its Potency?
A: inactive

Q: Sample C[N@+]12CCCC[C@@H]1CCC(=C(c1cccs1)c1cccs1)C2 — what was its Potency?
A: inactive

Q: Sample CN(C)C(=O)CCSC(SCCC(=O)O)c1cccc(/C=C/c2ccc3ccc(Cl)cc3n2)c1 (configuration not stated) — what was its Potency?
A: 26.6 µM (active)

Q: Sample N#Cc1ccc2c(c1)N(CCCN1CCC(O)CC1)c1ccccc1S2 — what was its Potency?
A: 21.1 µM (active)

Q: Sample Nc1nc(=O)n([C@@H]2CS[C@H](CO)O2)cc1F — what was its Potency?
A: inactive

Q: Sample CCCCc1cc2c(=O)c(C(=O)OC)c[nH]c2cc1OCc1ccccc1 — what was its Potency?
A: inactive

Q: Sample CCOC(=O)[C@@H](N)CS — what was its Potency?
A: inactive

Q: Sample O=P(O)(O)OC[C@H]1O[C@](O)(COP(=O)(O)O)[C@@H](O)[C@@H]1O — what was its Potency?
A: inactive

Q: Sample CC1(C)S[C@@H]2[C@H](NC(=O)[C@H](NC(=O)N3CCN(S(C)(=O)=O)C3=O)c3ccccc3)C(=O)N2[C@H]1C(=O)O — what was its Potency?
A: inactive

Q: Sample CCN(CC)CCOc1ccc2nc(N(C)C)sc2c1 — what was its Potency?
A: inactive

Q: Sample Cn1cc(NC(=O)c2cc(NC(=O)c3cc(NC=O)cn3C)cn2C)cc1C(=O)NCCC(=N)N — what was its Potency?
A: inactive

====

- target-system: Androgen receptor (Homo sapiens)
- assay-comment: qHTS assay to identify small molecule antagonists of the androgen receptor (AR) signaling pathway (AID 743035)
- recorded-conditions: HEK293 AR-UAS-bla, R1881-stimulated, beta-lactamase FRET, 16 h; series mostly up to 58.5 µM
Inconclusive results are not listed. The source made the active and inactive calls. Calls follow the shape of the dose curve; as a rule, active = well fitted inhibition curve with a large enough effect in the signal ratio in the repeat runs (not every such curve was filed as active); inconclusive = weak or mixed curves, or effect the other way; inactive = no such curve, though single readings can be large or run the other way; the % refers to the signal ratio.
Write down one outcome, taken from active, inactive

Q: Which outcome was assigned to O=C1CSC2(CCN(CCCN3c4ccccc4Sc4ccc(Cl)cc43)CC2)N1 in this test?
A: active

Q: Which outcome was assigned to CC(=O)[C@@]1(O)CC[C@H]2[C@@H]3C=C(Cl)C4=CC(=O)CC[C@]4(C)[C@H]3CC[C@@]21C in this test?
A: active

Q: Which outcome was assigned to CC(C)CN(C[C@@H](O)[C@H](Cc1ccccc1)NC(=O)O[C@@H]1CCOC1)S(=O)(=O)c1ccc(N)cc1 in this test?
A: active

Q: Which outcome was assigned to CCN(CC)c1ccc(N=Nc2ccc(S(=O)(=O)N(C)C)cc2)c(S(=O)(=O)NCC[n+]2ccccc2)c1 in this test?
A: inactive

Q: Which outcome was assigned to C[C@@H]1C[C@H]2C3C[C@H](F)C4=CC(=O)C=CC4(C)[C@@]3(F)[C@@H](O)CC2(C)[C@@]1(O)C(=O)COC(=O)C(C)(C)C (some centres not stated) in this test?
A: inactive

Q: Which outcome was assigned to C=C[C@]1(C)C[C@@H](OC(=O)CSC(C)(C)CNC(=O)[C@H](N)C(C)C)[C@]2(C)[C@H](C)CC[C@]3(CCC(=O)[C@H]32)[C@@H](C)[C@@H]1O in this test?
A: active

Q: Which outcome was assigned to CCC(=O)OCC(=O)[C@@]1(OC(=O)CC)[C@H](C)C[C@H]2[C@H]3[C@H]([C@@H](O)C[C@@]21C)[C@@]1(C)C=CC(=O)C=C1C[C@H]3Cl in this test?
A: inactive

====

- target-system: Glucocorticoid receptor (Homo sapiens) (UniProt P04150)
- Sequence (P04150 whole entry, looked up): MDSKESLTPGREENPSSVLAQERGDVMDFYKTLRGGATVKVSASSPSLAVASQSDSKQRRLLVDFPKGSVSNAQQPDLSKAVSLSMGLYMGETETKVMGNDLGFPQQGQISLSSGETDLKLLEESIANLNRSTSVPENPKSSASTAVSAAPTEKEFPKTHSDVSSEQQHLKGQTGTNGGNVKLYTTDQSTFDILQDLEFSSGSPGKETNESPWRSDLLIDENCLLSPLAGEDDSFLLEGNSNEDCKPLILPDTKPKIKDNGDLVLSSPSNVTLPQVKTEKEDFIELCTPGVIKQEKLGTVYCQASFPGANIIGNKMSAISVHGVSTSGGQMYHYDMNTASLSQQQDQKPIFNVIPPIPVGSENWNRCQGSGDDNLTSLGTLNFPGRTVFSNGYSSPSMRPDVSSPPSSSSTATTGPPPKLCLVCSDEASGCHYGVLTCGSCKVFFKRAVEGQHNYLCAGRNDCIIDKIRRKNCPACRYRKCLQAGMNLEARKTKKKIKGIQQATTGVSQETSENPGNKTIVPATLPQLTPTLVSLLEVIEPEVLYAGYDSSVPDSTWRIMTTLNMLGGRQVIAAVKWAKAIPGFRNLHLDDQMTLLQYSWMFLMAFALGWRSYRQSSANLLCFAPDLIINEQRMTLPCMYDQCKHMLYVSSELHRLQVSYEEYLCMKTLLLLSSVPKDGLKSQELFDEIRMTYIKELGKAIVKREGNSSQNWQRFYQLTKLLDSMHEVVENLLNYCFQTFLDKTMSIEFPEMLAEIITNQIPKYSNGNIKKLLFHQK
- assay-comment: qHTS assay to identify small molecule antagonists of the glucocorticoid receptor (GR) signaling pathway (AID 720692)
- recorded-conditions: GR-bla HeLa, beta-lactamase FRET ratio, dexamethasone-stimulated, 18 h; series mostly up to 58.5 µM
Inconclusive results are not listed. The source made the active and inactive calls. Calls come from the whole dose curve; as a rule, active = well fitted inhibition curve with a large enough effect in the signal ratio in the repeat runs (not every such curve was filed as active); inconclusive = weak or mixed curves, or effect the other way; inactive = no such curve, though single readings can be large or run the other way; the % refers to the signal ratio.
Write down one outcome, taken from active, inactive

Illustrative cases are given below, each with its answer.
CC1CS(=O)(=O)CCN1/N=C/c1ccc([N+](=O)[O-])o1 (stereo not given); inactive
O=C(OCCO)c1ccccc1O; inactive
CCN(CC)c1ccc(N=Nc2ccc(S(=O)(=O)N(C)C)cc2)c(S(=O)(=O)NCC[n+]2ccccc2)c1; inactive
C/C1=C2N=C(/C=C3N=C(/C(C)=C4\[N-][C@@](C)([C@@H]5N=C1[C@](C)(CCC(=O)NCC(C)OP(=O)(O)O[C@H]1[C@@H](O)[C@@H](n6cnc7cc(C)c(C)cc76)O[C@@H]1CO)[C@H]5CC(N)=O)[C@@](C)(CC(N)=O)[C@@H]4CCC(N)=O)[C@@](C)(CC(N)=O)[C@@H]\3CCC(N)=O)C(C)(C)[C@@H]/2CCC(N)=O.CC(=O)O.[Co] (stereo not given in full); inactive
CC(C)(C)NCC(O)c1ccc(O)c(CO)n1 (stereo not given); inactive
CC#CCC(C)[C@H](O)/C=C/[C@@H]1[C@H]2C/C(=C/CCCC(=O)O)C[C@H]2C[C@H]1O (stereo not given in full); inactive

Q: Which outcome was assigned to COC(=O)CCC(=O)CN in this test?
A: inactive

Q: Which outcome was assigned to O=C1NC(=O)[C@H]2[C@@H]1[C@@H]1C=C[C@H]2C1 in this test?
A: inactive

Q: Which outcome was assigned to COc1cc(S(C)=O)ccc1-c1nc2ncccc2[nH]1 (stereo not given) in this test?
A: inactive

Q: Which outcome was assigned to O=C1N=C2SCCN2C(=O)C1Cc1ccc(Cl)cc1 (stereo not given) in this test?
A: inactive

Q: Which outcome was assigned to CCC(CN)CC(C)CCNCC(O)CNCC(C)CC(CC)CN (stereo not given) in this test?
A: inactive

Q: Which outcome was assigned to O=C(O)c1cc2ccccc2c(Cc2c(O)c(C(=O)O)cc3ccccc23)c1O in this test?
A: inactive
